assay_procedure: Pharmacokinetics in SD rats
Type: in vivo
test_settings: both sexes, rat, plasma, iv; SD rats, 2 mg/kg
readout_name: half-life

- Cc1c(C(=O)Nc2ccc(Oc3ccnc(Nc4cccc(OC5CCN(C)CC5)c4)n3)cc2)c(=O)n(-c2ccccc2)n1C [compound 17c]: 3.33 h

###

// IC50 lookup, one value per entry
system: Mer kinase (Homo sapiens)
Sequence (Q12866 21-999): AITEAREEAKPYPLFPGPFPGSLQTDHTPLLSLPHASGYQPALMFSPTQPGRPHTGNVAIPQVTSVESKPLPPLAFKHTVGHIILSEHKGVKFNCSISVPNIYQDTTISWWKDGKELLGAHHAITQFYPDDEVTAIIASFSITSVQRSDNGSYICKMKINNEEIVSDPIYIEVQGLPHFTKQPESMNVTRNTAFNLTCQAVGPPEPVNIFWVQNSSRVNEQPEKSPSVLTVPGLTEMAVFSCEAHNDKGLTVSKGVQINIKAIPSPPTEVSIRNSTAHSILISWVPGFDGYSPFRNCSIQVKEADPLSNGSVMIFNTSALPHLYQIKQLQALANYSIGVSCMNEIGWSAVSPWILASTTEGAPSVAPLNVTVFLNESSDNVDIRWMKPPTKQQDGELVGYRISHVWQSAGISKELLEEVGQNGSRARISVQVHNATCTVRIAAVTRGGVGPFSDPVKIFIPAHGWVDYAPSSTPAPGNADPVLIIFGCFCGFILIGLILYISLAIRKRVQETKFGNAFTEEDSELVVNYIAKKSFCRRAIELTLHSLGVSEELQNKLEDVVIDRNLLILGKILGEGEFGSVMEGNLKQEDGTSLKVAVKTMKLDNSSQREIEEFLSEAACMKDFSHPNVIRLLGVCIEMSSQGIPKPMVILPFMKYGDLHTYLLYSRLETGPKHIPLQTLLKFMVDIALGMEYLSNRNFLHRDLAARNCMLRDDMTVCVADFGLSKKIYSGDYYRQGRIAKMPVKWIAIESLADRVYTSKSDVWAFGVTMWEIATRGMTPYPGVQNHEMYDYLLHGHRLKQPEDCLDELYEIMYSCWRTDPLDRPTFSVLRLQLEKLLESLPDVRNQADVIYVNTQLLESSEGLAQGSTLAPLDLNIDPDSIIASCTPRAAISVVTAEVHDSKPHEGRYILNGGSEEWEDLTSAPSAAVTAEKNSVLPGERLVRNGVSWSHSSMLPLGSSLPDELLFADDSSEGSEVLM
readout_name: IC50 (nM)

- Cc1c(C(=O)Nc2ccc(Oc3ccnc(Nc4ccc(NC(=O)C(C)N5CCN(C)CC5)cc4)n3)cc2)c(=O)n(-c2ccccc2)n1C (stereo not drawn) [compound 17h]: 11.9
- CC(=O)N1CCN(c2ccc(Nc3nccc(Oc4ccc(NC(=O)c5c(C)n(C)n(-c6ccccc6)c5=O)cc4)n3)cc2)CC1 [compound 17e]: 69.8
- CN1CCN(C(=O)c2ccc(Nc3nccc(Oc4ccc(NC(=O)C5(C(=O)Nc6ccc(F)cc6)CC5)cc4)n3)cc2)CC1 [compound 13h]: 72
- O=C(Nc1ccc(F)cc1)C1(C(=O)Nc2ccc(Oc3ccnc(Nc4cn[nH]c4)n3)cc2)CC1 [compound 13c]: 110
- Cc1c(C(=O)Nc2ccc(Oc3ccnc(Nc4ccc(C(=O)N5CCN(C)CC5)cc4)n3)cc2)c(=O)n(-c2ccccc2)n1C [compound 17d]: 84.1
- Cc1c(C(=O)Nc2ccc(Oc3ccnc(Nc4cccc(OC5CCN(C)CC5)c4)n3)cc2)c(=O)n(-c2ccccc2)n1C [compound 17c]: 6.4
